- test-system: T1, 4H607-bH
- T1 chain: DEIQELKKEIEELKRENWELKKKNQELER
- test-name: two-hybrid library CCNG1;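 also: natural log of median RNA to DNA barcode read ratio; higher means stronger binding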
reported-endpoint: interaction score

I = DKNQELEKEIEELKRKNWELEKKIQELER [4H3189-bH]
II = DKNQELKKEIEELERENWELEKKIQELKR [4H3606-bH]
Field: lower recorded interaction score (choose I or II ) Reply with the label of the item you choose.
I
(I: -2.19, II: -0.729)

1 = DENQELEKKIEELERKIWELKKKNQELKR [4H1328-bH]
2 = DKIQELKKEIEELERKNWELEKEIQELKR [4H2610-bH]
3 = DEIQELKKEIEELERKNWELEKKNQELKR [4H568-bH]
4 = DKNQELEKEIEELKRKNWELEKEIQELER [4H3185-bH]
5 = DEIQELEKKNEELKREIWELKKKIQELKR [4H462-bH]
Falling order of interaction score, please. Rank them, then answer with their labels in that order.
3, 2, 5, 4, 1

1 = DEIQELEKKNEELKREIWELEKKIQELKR [4H454-bH]
2 = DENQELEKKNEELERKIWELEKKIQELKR [4H1446-bH]
3 = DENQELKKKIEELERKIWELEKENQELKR [4H1828-bH]
Put the items in sequence by interaction score, from largest down. List the labels according to the requested ordering.
2, 1, 3

a = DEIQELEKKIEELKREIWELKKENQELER [4H331-bH]
b = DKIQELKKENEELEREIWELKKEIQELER [4H2697-bH]
Hi! Which is lower in terms of interaction score, the first one a or the second one b ? Let me know the label of the one you choose.
a
(a: -1.89, b: -0.619)

a = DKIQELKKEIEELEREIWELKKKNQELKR [4H2576-bH]
b = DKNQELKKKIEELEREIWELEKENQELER [4H3843-bH]
Field: lower interaction score | Options: a / b Reply with the label of the item you choose.
b
